For each entry below, report its pKd value.
Assayed Target: T1, Macaca fascicularis CEACAM6, extracellular (mature form), obtained by Factor Xa cleavage of TPP-2443 (Macaca fascicularis)
T1 construct: used biotinylated in some assays; also called APP-319; Cynomolgus CEACAM6
T1 chain: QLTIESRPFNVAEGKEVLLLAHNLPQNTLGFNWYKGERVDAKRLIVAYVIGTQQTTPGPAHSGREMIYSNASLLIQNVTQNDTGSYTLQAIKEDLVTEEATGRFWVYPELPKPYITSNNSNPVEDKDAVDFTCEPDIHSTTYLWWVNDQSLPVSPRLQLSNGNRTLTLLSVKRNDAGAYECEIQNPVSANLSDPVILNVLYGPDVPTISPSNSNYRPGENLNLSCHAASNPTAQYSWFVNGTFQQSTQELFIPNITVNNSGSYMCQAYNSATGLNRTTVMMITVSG
Assay: SPR, antibody captured, antigen as analyte
The quantity pKd is defined as the negative base-10 logarithm of the molar concentration.

Exam item: Assign pKd to the following record: TPP-3821 (antibody, human IgG2, kappa, V domains shown, humanized from TPP-3187, human IgG2; also called 3187HU2-hIgG2Kappa) VH: QVTLRESGPALVKPTQTLTLTCTFSGFSLSTYGIGVGWIRQPPGKALEWLAHIWWNDNKYYSTSLKTRLTISKDTSKNQVVLTMTNMDPVDTATYYCARISLPYFDYWGQGTLVTVSS VL: DIQLTQSPSFLSASVGDRVTITCKASQNVGTAVAWYQQKPGKAPKLLIYSASNRYTGVPSRFSGSGSGTEFTLTISSLQPEDFATYYCQQYNNYPLTFGGGTKVEIKR
Marked response: 7.31

Exam item: Assign pKd to the following record: TPP-3705 (antibody, human IgG2, kappa, V domains shown, also called 090E-M007-A09-Mat1-hIgG2-hIgG2Kappa) VH: EVQLVESGGGLVQPGGSLRLSCAASGFTFSLYQMHWVRQAPGKGLEWVSWISFSGGNTGYADSVKGRFTISRDNSKNTLYLQMNSLRAEDTAVYYCARATGYSSPWYLDPWGQGTLVTVSS VL: DIQMTQSPSSLSASVGDRVTITCQASHEIDNYLNWYQQKPGKAPKLLIYDAYWLKTGVPSRFSGSGSGTDFTLTISSLQPEDIATYYCQGYDDLSVTFGGGTKVDIKR
Marked response: 7.49

Exam item: Assign pKd to the following record: TPP-3707 (antibody, human IgG2, kappa, V domains shown, also called 090E-M007-A09-Mat2-hIgG2-hIgG2Kappa) VH: EVQLVESGGGLVQPGGSLRLSCAASGFTFSLYQMHWVRQAPGKGLEWVSWISFSGGNTGYADSVKGRFTISRDNSKNTLYLQMNSLRAEDTAVYYCARATGYSSPWYLDPWGQGTLVTVSS VL: DIQMTQSPSSLSASVGDRVTITCQASHEIDNYLNWYQQKPGKAPKLLIYDAYWSKTGVPSRFSGSGSGTDFTLTISSLQPEDIATYYCQGYDDLSVTFGGGTKVDIKR
Marked response: 7.49

Exam item: Assign pKd to the following record: TPP-2971 (antibody, mouse IgG1, V domains shown, murine hybridoma antibody, mouse IgG1; also called 792.15H12C9) VH: QVTLKESGPGILQPSQTLSLTCSFSGFSLSTYGIGVGWIRQPSGKDLEWLAHIWWNDNKYYNTALKSRLTISKDTSNNQVFLKIASVDTADTATYYCARISLPYFDYWGQGTTLTVSS VL: DIVMTQSQKFMSTSVGDRVSITCKASQNVGTAVAWYQQKPGQSPKLLIYSASNRYTGVPDRFTGSGSGTDFTLTISNMQSEDLADYFCQQYSSYPLTFGAGTKLELK
Marked response: 7.60

Exam item: Assign pKd to the following record: TPP-3820 (antibody, human IgG2, kappa, V domains shown, humanized from TPP-3187, human IgG2; also called 3187HU1-hIgG2Kappa) VH: QVTLRESGPALVKPTQTLTLTCTFSGFSLTTYGIGVGWIRQPPGKGLEWLAHIWWNDNKYYSTSLKTRLTISKDTSKNQVVLTMTNMDPVDTATYYCARISLPYFDYWGQGTLVTVSS VL: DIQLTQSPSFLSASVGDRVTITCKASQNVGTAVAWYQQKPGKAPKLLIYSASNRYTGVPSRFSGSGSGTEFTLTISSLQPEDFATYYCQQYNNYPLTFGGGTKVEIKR
Marked response: 7.27
